The reported measurements were obtained from patent US20250340557A1.

- ASSAYED_TARGET: human mPGES-1 (Homo sapiens, UniProt O14684)
- Construct: made in house; host or cells: COS-1 cells (transient transfection; microsomal fraction used as enzyme)
- ASSAY_REMARKS: Test for mPGES-1 inhibitory activity (microsomal enzyme, PGE2 EIA)
- Type: biochemical
- STUDY_CONDITIONS: microsomes from COS-1 cells transfected with human mPGES-1 cDNA; substrate PGH2 1 μM; 4° C., 4 minutes; PGE2 measured by EIA; read-out: h mPGES1 IC50
Below: a set of entries, each annotated with reported IC50.
RECORDED_ENDPOINT: IC50 (nM)

# SAMPLE_SMILES, RELATION_SYMBOL, RECORDED_RESULT
records = [
    ("Cc1nc(-c2c(C(F)(F)F)ccc(CNC(=O)C3CCN(c4ccc5cccc(C)c5n4)CC3)c2F)[nH]c(=O)c1F", "<", 1),
    ("Cc1cc(=O)[nH]c(-c2c(C(F)(F)F)ccc(CNC(=O)[C@H]3CC[C@H](OCc4ccc(F)c(F)c4)CC3)c2F)n1", "=", 13),
    ("O=c1cc(C(F)(F)F)nc(-c2c(C(F)(F)F)ccc(CNC(=O)[C@H]3C[C@@H](OCc4ccccc4)C3)c2F)[nH]1", "=", 6.4),
    ("Cc1cc(=O)[nH]c(-c2c(C(F)(F)F)ccc(CNC(=O)C3CCN(c4ccc(Cl)cc4)CC3)c2F)n1", "=", 31),
    ("Cc1nc(-c2c(C(F)(F)F)ccc(CNC(=O)[C@H]3CC[C@H](OCc4ccc(F)cc4F)CC3)c2F)[nH]c(=O)c1F", "<", 1),
    ("CCc1nc(-c2c(C(F)(F)F)ccc(CNC(=O)C3CCN(c4ccc(C#N)cc4Cl)CC3)c2F)[nH]c(=O)c1F", "=", 1.6),
    ("COc1cc(N2CCC(C(=O)NCc3ccc(C(F)(F)F)c(-c4nc(C)cc(=O)[nH]4)c3F)CC2)ccc1Cl", "=", 1.4),
    ("Cc1cccc2ccc(N3CCC(C(=O)NCc4ccc(C(F)(F)F)c(-c5nccc(=O)[nH]5)c4F)CC3)nc12", "<", 1),
    ("Cc1cc(=O)[nH]c(-c2c(C(F)(F)F)ccc(CNC(=O)C3CCN(c4ccc(OC(F)(F)F)cn4)CC3)c2F)n1", "=", 49),
    ("Cc1cc(=O)[nH]c(-c2c(C(F)(F)F)ccc(CNC(=O)[C@H]3CC[C@H](OCc4ccccc4Cl)CC3)c2F)n1", "=", 38),
    ("O=C(NCc1ccc(Cl)c(-c2nc(C(F)(F)F)cc(=O)[nH]2)c1F)C1CCN(c2ccc(C(F)(F)F)cn2)CC1", "<", 1),
    ("O=C(NCc1ccc(C(F)(F)F)c(-c2nc(C(F)(F)F)cc(=O)[nH]2)c1F)C1CCN(c2cccc(OC(F)(F)F)c2)CC1", "<", 1),
    ("Cc1cc(=O)[nH]c(-c2c(C(F)(F)F)ccc(CNC(=O)C3CCN(c4ncc(C(F)(F)F)cc4F)CC3)c2F)n1", "=", 21),
    ("O=C(NCc1ccc(C(F)(F)F)c(-c2nc(C(F)(F)F)cc(=O)[nH]2)c1F)C1CCN(c2cccc(C(F)F)c2)CC1", "<", 1),
    ("O=C(NCc1ccc(C(F)(F)F)c(-c2nc(C(F)(F)F)cc(=O)[nH]2)c1F)C1CCN(c2ncc(C(F)(F)F)cc2F)CC1", "<", 1),
    ("Cc1nc(-c2c(C(F)(F)F)ccc(CNC(=O)C3CCN(c4ccc(Cl)cc4)CC3)c2F)[nH]c(=O)c1F", "=", 16),
    ("O=c1cc(C(F)(F)F)nc(-c2c(C(F)(F)F)ccc(CNC(=O)[C@H]3C[C@H](OCc4ccccc4)C3)c2F)[nH]1", "<", 10),
    ("O=C(NCc1ccc(C(F)(F)F)c(-c2nc3c(c(=O)[nH]2)CCC3)c1F)C1CCN(c2ccc(C(F)(F)F)cn2)CC1", "=", 26),
    ("Cc1cc(=O)[nH]c(-c2c(C(F)(F)F)ccc(CNC(=O)[C@H]3CC[C@H](OCc4cc(F)cc(Cl)c4)CC3)c2F)n1", "<", 1),
    ("Cc1nc(-c2c(C(F)(F)F)ccc(CNC(=O)[C@H]3CC[C@H](OCc4ccc(Cl)cc4F)CC3)c2F)[nH]c(=O)c1F", "=", 13),
    ("Cc1cc(=O)[nH]c(-c2c(C(F)(F)F)ccc(CNC(=O)C3CCN(c4cccc(C(F)(F)F)c4)CC3)c2F)n1", "=", 13),
    ("O=C(NCc1ccc(C(F)(F)F)c(-c2nc3c(c(=O)[nH]2)CCC3)c1F)C1CCN(c2ccc(Cl)cc2)CC1", "<", 1),
    ("Cc1nc(-c2c(C(F)(F)F)ccc(CNC(=O)C3CCN(c4ncc(Cl)cc4Cl)CC3)c2F)[nH]c(=O)c1F", "<", 1),
    ("Cc1nc(-c2c(C(F)(F)F)ccc(CNC(=O)C3CCN(c4ccc(C(F)(F)F)cn4)CC3)c2F)[nH]c(=O)c1F", "=", 14),
    ("CCc1cc(=O)[nH]c(-c2c(C(F)(F)F)ccc(CNC(=O)C3CCN(c4ccc(Cl)c(OC)c4)CC3)c2F)n1", "=", 19),
    ("Cc1cccc2ccc(N3CCC(C(=O)NCc4ccc(C(F)(F)F)c(-c5nc(C(C)C)cc(=O)[nH]5)c4F)CC3)nc12", "<", 1),
    ("CCc1cc(=O)[nH]c(-c2c(C(F)(F)F)ccc(CNC(=O)[C@H]3CC[C@H](OCc4ccc(F)cc4F)CC3)c2F)n1", "=", 25),
]

====

- ASSAYED_TARGET: human mPGES-1 (Homo sapiens)
- Construct: made in house; host or cells: COS-1 cells (transient transfection; microsomal fraction used as enzyme)
- ASSAY_REMARKS: Test for mPGES-1 inhibitory activity (microsomal enzyme, PGE2 EIA)
- Type: biochemical
- STUDY_CONDITIONS: microsomes of COS-1 cells transfected with human mPGES-1 cDNA; PGH2 1 μM; 4° C., 4 minutes; PGE2 by EIA; read-out: h mPGES1 IC50
Recorded IC50 for the following compounds

# SAMPLE_SMILES, RELATION_SYMBOL, IC50 / µM
records = [
    ("O=c1cc(C(F)(F)F)nc(-c2c(C(F)(F)F)ccc(CNC(=O)[C@H]3C[C@@H](OCc4cccc(C(F)(F)F)c4)C3)c2F)[nH]1", "=", 0.098),
    ("O=c1cc(C(F)(F)F)nc(-c2c(C(F)(F)F)ccc(CNC(=O)[C@H]3C[C@@H](OCc4ccc(C(F)(F)F)cc4)C3)c2F)[nH]1", "<", 0.001),
    ("CCc1cc(=O)[nH]c(-c2c(C(F)(F)F)ccc(CNC(=O)[C@H]3C[C@H](OCc4cccc(F)c4)C3)c2F)n1", "=", 0.014),
    ("Cc1cc(=O)[nH]c(-c2c(C(F)(F)F)ccc(CNC(=O)[C@H]3C[C@H](OCc4cccc(Cl)c4)C3)c2F)n1", "<", 0.001),
    ("CCc1nc(-c2c(C(F)(F)F)ccc(CNC(=O)[C@H]3C[C@H](OCc4cccc(F)c4F)C3)c2F)[nH]c(=O)c1F", "=", 0.0032),
    ("O=C(NCc1ccc(C(F)(F)F)c(-c2nc(C(F)(F)F)cc(=O)[nH]2)c1F)N1CCC(Oc2ccc(C(F)(F)F)cc2)CC1", "<", 0.001),
    ("Cc1nc(-c2c(C(F)(F)F)ccc(CNC(=O)[C@H]3C[C@H](OCc4ccc(Cl)cc4F)C3)c2F)[nH]c(=O)c1F", "=", 0.015),
]

====

- ASSAYED_TARGET: human mPGES-1 (Homo sapiens, UniProt O14684)
- Construct: made in house; host or cells: COS-1 cells (transient transfection; microsomal fraction used as enzyme)
- Sequence (O14684 1-152): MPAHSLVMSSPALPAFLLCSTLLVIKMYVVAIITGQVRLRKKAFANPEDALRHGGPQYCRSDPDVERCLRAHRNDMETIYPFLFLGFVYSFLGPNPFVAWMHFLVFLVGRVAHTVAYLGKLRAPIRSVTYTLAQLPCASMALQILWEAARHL
- ASSAY_REMARKS: Test for mPGES-1 inhibitory activity (microsomal enzyme, PGE2 EIA)
- Assay type: biochemical
- STUDY_CONDITIONS: microsomes of COS-1 cells transfected with human mPGES-1 cDNA; PGH2 1 μM; 4° C., 4 minutes; PGE2 by EIA; read-out: h mPGES1 IC50
Quick reference for IC50 among some compounds
RECORDED_ENDPOINT: IC50 (nM)

# COMPOUND, RECORDED_ENDPOINT, UNITS_OF_MEASURE, RELATION_SYMBOL, RECORDED_RESULT
records = [
    ("O=c1cc(C(F)(F)F)nc(-c2c(C(F)(F)F)ccc(CNC(=O)[C@H]3C[C@H](OCc4ccc(C(F)(F)F)cc4)C3)c2F)[nH]1 [Example 146]", "IC50", "nM", "=", 2.1),
    ("Cc1nc(-c2c(C(F)(F)F)ccc(CNC(=O)[C@H]3C[C@H](OCc4ccc(F)c(F)c4)C3)c2F)[nH]c(=O)c1F [Example 220]", "IC50", "nM", "=", 15),
    ("O=c1cc(C(F)(F)F)nc(-c2c(C(F)(F)F)ccc(CNC(=O)[C@H]3C[C@H](OCc4ccc(F)cc4Cl)C3)c2F)[nH]1 [Example 154]", "IC50", "nM", "<", 1),
]
